target: MMP-2 (Homo sapiens)
Sequence (P08253 110-660, species assumed): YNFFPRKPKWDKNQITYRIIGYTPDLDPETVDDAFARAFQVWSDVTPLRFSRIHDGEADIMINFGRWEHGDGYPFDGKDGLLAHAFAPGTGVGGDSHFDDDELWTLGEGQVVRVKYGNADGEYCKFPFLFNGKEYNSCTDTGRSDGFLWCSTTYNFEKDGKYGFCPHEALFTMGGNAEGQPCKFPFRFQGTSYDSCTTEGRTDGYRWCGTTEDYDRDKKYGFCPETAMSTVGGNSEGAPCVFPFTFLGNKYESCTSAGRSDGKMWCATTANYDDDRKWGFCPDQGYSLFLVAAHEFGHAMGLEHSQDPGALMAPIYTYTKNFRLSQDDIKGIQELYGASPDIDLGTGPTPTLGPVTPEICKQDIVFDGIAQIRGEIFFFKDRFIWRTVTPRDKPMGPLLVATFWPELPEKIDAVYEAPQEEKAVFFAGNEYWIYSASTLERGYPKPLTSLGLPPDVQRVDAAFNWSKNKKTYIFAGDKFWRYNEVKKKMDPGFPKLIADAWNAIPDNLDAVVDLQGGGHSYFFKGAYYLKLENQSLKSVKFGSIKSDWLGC
valueType: IC50 (nM)
Give your result in nM as a bare value.

-- ask Check the records and state IC50 for `COc1ccc(C(=O)Nc2ccc(-c3ccc(S(=O)(=O)N[C@@H](CCSC)C(=O)O)cc3)cc2)cc1OC`
-- reply 2220

***
-- ask Check the records and state IC50 for `CC(C)(C)[C@H](NS(=O)(=O)c1ccc(-c2ccc(NC(=O)c3cc4ccccc4s3)cc2)cc1)C(=O)O`
-- reply 241

-- ask Check the records and state IC50 for `CC(C)[C@@H](NS(=O)(=O)c1ccc(-c2ccc(NC(=O)c3ccc4ccccc4c3)cc2)cc1)C(=O)O`
-- reply 664

-- ask Check the records and state IC50 for `O=C(O)[C@@H](Cc1ccccc1)NS(=O)(=O)c1ccc(-c2ccc(C#Cc3ccc4ccccc4c3)cc2)cc1`
-- reply 163

-- ask Check the records and state IC50 for `C[C@H](NS(=O)(=O)c1ccc(-c2ccc(C#Cc3cccc(C(=O)O)c3)cc2)cc1)C(=O)O`
-- reply 349

-- ask Check the records and state IC50 for `C[C@@H](NS(=O)(=O)c1ccc(-c2ccc(NC(=O)c3ccc4ccccc4c3)cc2)cc1)C(=O)O`
-- reply 726

###

Recorded pIC50 for the following compounds
Biological target: MMP-8 (Homo sapiens, UniProt P22894)
Construct: In regard to MMP-8, catalytic domain (^99Phe˜^262Gly) was amplified with PCR; His-tag; enterokinase digestion-site
Sequence (P22894 99-262): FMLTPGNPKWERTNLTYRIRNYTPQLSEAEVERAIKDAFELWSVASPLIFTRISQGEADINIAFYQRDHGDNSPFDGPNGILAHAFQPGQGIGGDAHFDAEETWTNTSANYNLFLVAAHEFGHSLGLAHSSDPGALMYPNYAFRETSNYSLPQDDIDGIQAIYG
Experiment: Assay for inhibitory activities on MMPs (fluorogenic peptide substrate), MMP-8
Protocol: In regard to MMP-8, catalytic domain (^99Phe˜^262Gly) was amplified with PCR using commercial available Human Bone Marrow cDNA. […] The enzymatic activity on MMPs was analyzed by the method described in “C. […] IC50 values were calculated by using the following formula and each fluorescence values of above four methods (A to D). […] The value of inhibitory activity against MMP-2, MMP-8, MMP-9, MMP-12, and MMP-13 measured by above mentioned methods are shown in Table 25 and 26.
pIC50 here: minus log base 10 of the concentration, concentration in moles per litre.

These recorded examples may help you get a feel for the data.
-- ask Provide the reported pIC50 (system: MMP-8 (Homo sapiens, UniProt P22894)) for COc1ccc2cc(C#Cc3ccc(-c4ccc(S(=O)(=O)N[C@@H](Cc5ccccc5)C(=O)O)cc4)cc3)ccc2c1 [III-29]
-- reply 5.28

-- ask Provide the reported pIC50 (system: MMP-8 (Homo sapiens, UniProt P22894)) for O=C(Nc1ccc(-c2ccc(S(=O)(=O)N[C@H](Cc3ccccc3)C(=O)O)cc2)cc1)c1cccs1 [VI-7]
-- reply 5.63

***
-- ask Provide the reported pIC50 (system: MMP-8 (Homo sapiens, UniProt P22894)) for CC(C)C[C@@H](NS(=O)(=O)c1ccc(-c2ccc(C#Cc3ccc4ccccc4c3)cc2)cc1)C(=O)O [III-6]
-- reply 6.58

###

Recorded pIC50 for the following compounds
biological target: MMP-12 (Homo sapiens); construct: In regard to MMP-12, catalytic domain (^100Phe˜^263Gly) was amplified with RT-PCR; His-tag; enterokinase digestion-site; assay: Assay for inhibitory activities on MMPs (fluorogenic peptide substrate), MMP-12
pIC50 here: minus log base 10 of the concentration, concentration in moles per litre.

These recorded examples may help you get a feel for the data.
-- ask Check the records and state pIC50 for `CSCC[C@H](NS(=O)(=O)c1ccc(-c2ccc(C#Cc3ccc4ccccc4c3)cc2)cc1)C(=O)O`
-- reply 7.53

-- ask Check the records and state pIC50 for `CC(C)[C@@H](NS(=O)(=O)c1ccc(-c2ccc(COc3ccc4ccccc4c3)cc2)cc1)C(=O)O`
-- reply 7.02

-- ask Check the records and state pIC50 for `COc1ccc2cc(C#Cc3ccc(-c4ccc(S(=O)(=O)N[C@@H](Cc5c[nH]c6ccccc56)C(=O)O)cc4)cc3)ccc2c1`
-- reply 6.05

-- ask Check the records and state pIC50 for `COc1ccc2cc(C#Cc3ccc(-c4ccc(S(=O)(=O)N[C@H](C(=O)O)C(C)C)cc4)cc3)ccc2c1`
-- reply 7.23

-- ask Check the records and state pIC50 for `O=C(Nc1ccc(-c2ccc(S(=O)(=O)N[C@H](Cc3ccccc3)C(=O)O)cc2)cc1)c1cccs1`
-- reply 6.21

***
-- ask Check the records and state pIC50 for `CC(C)[C@@H](NS(=O)(=O)c1ccc(-c2ccc(C#Cc3ccc4ccccc4c3)cc2)cc1)C(=O)O`
-- reply 7.32

###

target: MMP-12 (Homo sapiens, UniProt P39900); construct: In regard to MMP-12, catalytic domain (^100Phe˜^263Gly) was amplified with RT-PCR; His-tag; enterokinase digestion-site; assay: Assay for inhibitory activities on MMPs (fluorogenic peptide substrate), MMP-12
Sequence (P39900 100-263): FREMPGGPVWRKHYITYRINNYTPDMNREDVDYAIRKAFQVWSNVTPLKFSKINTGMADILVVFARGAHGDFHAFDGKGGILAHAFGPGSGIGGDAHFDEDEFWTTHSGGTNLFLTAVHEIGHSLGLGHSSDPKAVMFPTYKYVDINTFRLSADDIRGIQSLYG
pIC50: −log10 of the molar value.
Assign class by pIC50: not lower than 6 means Condition met; lower than 6 means Condition not met.

-- ask Hi, just wondering whether `O=C(Nc1ccc(-c2ccc(S(=O)(=O)N[C@H](Cc3ccccc3)C(=O)O)cc2)cc1)c1ccc(F)cc1` shows pIC50 of 6 or higher.
-- reply Condition not met

***
-- ask Hi, just wondering whether `O=C(C#Cc1ccccc1)Nc1ccc(-c2ccc(S(=O)(=O)N[C@H](Cc3ccccc3)C(=O)O)cc2)cc1` shows pIC50 of 6 or higher.
-- reply Condition met

-- ask Hi, just wondering whether `COc1ccc2cc(C#Cc3ccc(-c4ccc(S(=O)(=O)N[C@H](Cc5ccccc5)C(=O)O)cc4)cc3)ccc2c1` shows pIC50 of 6 or higher.
-- reply Condition not met

-- ask Hi, just wondering whether `COc1ccc2cc(C#Cc3ccc(-c4ccc(S(=O)(=O)N[C@H](CO)C(=O)O)cc4)cc3)ccc2c1` shows pIC50 of 6 or higher.
-- reply Condition not met

-- ask Hi, just wondering whether CCC(C)[C@H](NS(=O)(=O)c1ccc(-c2ccc(C#Cc3ccc4cc(OC)ccc4c3)cc2)cc1)C(=O)O (stereo partly shown) shows pIC50 of 6 or higher.
-- reply Condition met

-- ask Hi, just wondering whether `O=C(Nc1ccc(-c2ccc(S(=O)(=O)N[C@H](Cc3ccccc3)C(=O)O)cc2)cc1)c1ccc(F)c(F)c1` shows pIC50 of 6 or higher.
-- reply Condition not met

-- ask Hi, just wondering whether `COc1ccc(C(=O)Nc2ccc(-c3ccc(S(=O)(=O)N[C@H](C)C(=O)O)cc3)cc2)cc1OC` shows pIC50 of 6 or higher.
-- reply Condition met

-- ask Hi, just wondering whether `COc1ccc2cc(C#Cc3ccc(-c4ccc(S(=O)(=O)N[C@@H](C)C(=O)O)cc4)cc3)ccc2c1` shows pIC50 of 6 or higher.
-- reply Condition not met

-- ask Hi, just wondering whether `C[C@H](NS(=O)(=O)c1ccc(-c2ccc(C#Cc3ccc4ccccc4c3)cc2)cc1)C(=O)O` shows pIC50 of 6 or higher.
-- reply Condition met

-- ask Hi, just wondering whether COCC(NS(=O)(=O)c1ccc(-c2ccc(C#Cc3ccc4cc(OC)ccc4c3)cc2)cc1)C(=O)O (stereo not shown) shows pIC50 of 6 or higher.
-- reply Condition met

-- ask Hi, just wondering whether `COc1ccc2cc(C#Cc3ccc(-c4ccc(S(=O)(=O)N[C@H](CSC)C(=O)O)cc4)cc3)ccc2c1` shows pIC50 of 6 or higher.
-- reply Condition met

-- ask Hi, just wondering whether `COc1ccc2cc(C#Cc3ccc(-c4ccc(S(=O)(=O)N[C@H](CCC(=O)O)C(=O)O)cc4)cc3)ccc2c1` shows pIC50 of 6 or higher.
-- reply Condition met

###

target: MMP-13 (Homo sapiens); construct: catalytic domain (^104Tyr˜^267Gly) was amplified with RT-PCR; His-tag; enterokinase digestion-site; assay: Assay for inhibitory activities on MMPs (fluorogenic peptide substrate), MMP-13
Note to self: IC50 under 40 nM means y, ties and anything higher get n.

Use these answered entries as a reference point.
-- ask Find out if reported IC50 for O=C(/C=C/c1ccccc1)Nc1ccc(-c2ccc(S(=O)(=O)N[C@H](Cc3ccccc3)C(=O)O)cc2)cc1 [VI-9] is less than 40 nM
-- reply n

-- ask Find out if reported IC50 for CC(C)[C@@H](NS(=O)(=O)c1ccc(-c2ccc(COc3ccc4ccccc4c3)cc2)cc1)C(=O)O [VII-12] is less than 40 nM
-- reply y

-- ask Find out if reported IC50 for O=C(Nc1ccc(-c2ccc(S(=O)(=O)N[C@@H](Cc3ccccc3)C(=O)O)cc2)cc1)c1cc2ccccc2s1 [VI-48] is less than 40 nM
-- reply n

-- ask Find out if reported IC50 for COc1ccc2cc(C#Cc3ccc(-c4ccc(S(=O)(=O)NC5(C(=O)O)CCCC5)cc4)cc3)ccc2c1 [III-65] is less than 40 nM
-- reply n

-- ask Find out if reported IC50 for O=C(Nc1ccc(-c2ccc(S(=O)(=O)N[C@@H](Cc3ccccc3)C(=O)O)cc2)cc1)c1ccc2ccccc2c1 [VI-36] is less than 40 nM
-- reply n

-- ask Find out if reported IC50 for O=C(Nc1ccc(-c2ccc(S(=O)(=O)N[C@H](Cc3ccccc3)C(=O)O)cc2)cc1)c1cccs1 [VI-7] is less than 40 nM
-- reply y

Consider the additional molecule presented here.
-- ask Find out if reported IC50 for CSCC[C@H](NS(=O)(=O)c1ccc(-c2ccc(NC(=O)c3ccc4ccccc4c3)cc2)cc1)C(=O)O [VI-44] is less than 40 nM
-- reply n

Measured values drawn from patent US20080119513A1 for this set.
